- Target Or Test System: Tumor necrosis factor (Homo sapiens, UniProt P01375)
- Sequence (P01375 whole entry): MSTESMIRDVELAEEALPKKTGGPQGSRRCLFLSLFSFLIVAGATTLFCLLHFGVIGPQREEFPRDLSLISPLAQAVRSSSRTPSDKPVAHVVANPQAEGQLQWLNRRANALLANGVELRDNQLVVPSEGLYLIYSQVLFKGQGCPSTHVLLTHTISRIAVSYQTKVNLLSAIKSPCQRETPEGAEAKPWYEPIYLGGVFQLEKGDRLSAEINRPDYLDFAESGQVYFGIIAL
- Method Summary: Inhibition of TNFalpha (unknown origin) in HEK-Blue-hTLR2 cells assessed as inhibition of TNFalpha-induced NFkappaB activation pretreated for 2 hrs followed by incubation with TNFalpha for 18 hrs by SEAP assay
Assay Endpoint: IC50

Consider the reported IC50 for these compounds:
Compound | IC50
CCCCCCCCCCCCCCOCC(CNC(=O)[C@@H](N)CCCCN)OCCCCCCCCCCCCCC (some centres not stated) | > 30 µM
CCCCCCCCCCCCCCOCC(CNC(=O)[C@H](CCCCN)NC(C)=O)OCCCCCCCCCCCCCC (some centres not stated) | > 30 µM
CCCCCCCCCCCCCCOCC(CNC(=O)[C@H]1CCCN1)OCCCCCCCCCCCCCC (some centres not stated) | > 30 µM
CCCCCCCCCCCCCCOCC(CNC(=O)[C@@H](CCCCN)NCc1ccccc1)OCCCCCCCCCCCCCC (some centres not stated) | > 30 µM
CCCCCCCCCCCCCCOCC(CNC(=O)[C@H]1CC[C@H](N)CC1)OCCCCCCCCCCCCCC (some centres not stated) | > 30 µM
CCCCCCCCCCCCCCOCC(CNC(=O)C(CC1CCNCC1)NC(=O)OCC1c2ccccc2-c2ccccc21)OCCCCCCCCCCCCCC (configuration not stated) | > 30 µM
CCCCCCCCCCCCCCOCC(CNC(=O)[C@@H](CCCCN)NC(=O)OCc1ccccc1)OCCCCCCCCCCCCCC (some centres not stated) | > 30 µM
CCCCCCCCCCCCCCOCC(CNC(=O)c1cccc(C2CCNCC2)c1)OCCCCCCCCCCCCCC (configuration not stated) | > 30 µM

Item under review: CCCCCCCCCCCCCCOCC(CNC(=O)[C@H](CCCCN)NC(=O)OCC1c2ccccc2-c2ccccc21)OCCCCCCCCCCCCCC (some centres not stated) . Reported IC50?
> 30 µM

Input CCCCCCCCCCCCCCOCC(CNC(=O)[C@H](CCCCN)NCc1ccc(-c2ccccc2)cc1)OCCCCCCCCCCCCCC (some centres not stated)
> 30 µM

Another compound: CCCCCCCCCCCCCCOCC(CNC(=O)CC[C@H](NC(=O)OCC1c2ccccc2-c2ccccc21)C(=O)O)OCCCCCCCCCCCCCC (some centres not stated)
> 30 µM

Now the same for CCCCCCCCCCCCCCOCC(CNC(=O)CCN)OCCCCCCCCCCCCCC (configuration not stated)
> 30 µM

Please answer likewise for CCCCCCCCCCCCCCOCC(CNC(=O)c1cccc(N2CCNCC2)c1)OCCCCCCCCCCCCCC (configuration not stated)
> 30 µM

Can you check CCCCCCCCCCCCCCOCC(CNC(=O)C1(NC(=O)OCc2ccccc2)CCNCC1)OCCCCCCCCCCCCCC (configuration not stated) next?
> 30 µM

Similarly, CCCCCCCCCCCCCCOCC(CNC(=O)[C@H](CCCCN)NCc1ccc(F)cc1)OCCCCCCCCCCCCCC (some centres not stated) ?
> 30 µM

Field entry: CCCCCCCCCCCCCCOCC(CNC(=O)CCCCCN)OCCCCCCCCCCCCCC (configuration not stated)
> 30 µM

Same lookup for CCCCCCCCCCCCCCOCC(CNC(=O)[C@H](CCCCN)NCc1ccccc1)OCCCCCCCCCCCCCC (some centres not stated) , please.
> 30 µM

These data points were gathered from BindingDB's records for doi:10.1016/j.bmcl.2021.127861.
